molecular target: 3',5'-cyclic-AMP phosphodiesterase 4B (Homo sapiens); assay: qHTS Assay for Inhibitors of PDE-IV (AID 607); details: HEK293 ACTOne CNG channel cells, membrane potential fluorescence; series mostly up to 22.9 µM
Records with an inconclusive call do not appear. Active and inactive are the calls of the source. Calls follow the shape of the dose curve; as a rule, active = well fitted activation curve with a large enough effect in the main read-out, with a control signal flat (not every such curve was filed as active); inconclusive = small, poorly fitted or top-dose-only effect, or effect the other way, or a change in a side signal; inactive = flat fitted curve, though single readings scatter.
Please answer using one outcome listed in active, inactive

Qu. Entry CC[N+](CC)(CC)CC(=O)Nc1c(C)cccc1C : call = ?
Ans. inactive

Qu. Entry N#CC(C#N)=C(N)/C(C#N)=C/c1ccc(O)cc1 : call = ?
Ans. inactive

Qu. Entry COc1cc(/C=C(\C#N)C(=O)c2ccc(O)c(O)c2)cc(I)c1O : call = ?
Ans. inactive

Qu. Entry C[C@](Cc1ccc(O)c(O)c1)(NN)C(=O)O : call = ?
Ans. inactive

---

experiment: High Content Imaging Cell-Based qHTS for Inhibitors of the mTORC1 Signaling Pathway in MEF (Tsc2-/-, p53-/-) Cells (AID 2666); details: series mostly up to 38.3 µM;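 also: percent of cells scored positive for phospho-rpS6 Ser235/236 immunostaining by imaging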
Inconclusive results are not listed. Activity calls are given as the source filed them. Calls come from the whole dose curve; as a rule, active = well fitted inhibition curve with a large enough effect; inconclusive = small, poorly fitted or top-dose-only effect; inactive = flat fitted curve, though single readings scatter.
value kind: outcome

[
  {
    "compound": "c1ccc(C2CN3CCSC3=N2)cc1 (stereo unspecified)",
    "value kind": "outcome",
    "observed value": "inactive"
  },
  {
    "compound": "NC1C=CC=C(C(=O)O)C1 (stereo unspecified)",
    "value kind": "outcome",
    "observed value": "inactive"
  },
  {
    "compound": "CC1C(=O)N(C)C(=O)c2nc[nH]c21 (stereo unspecified)",
    "value kind": "outcome",
    "observed value": "inactive"
  },
  {
    "compound": "CC1CCN=C(N)S1 (stereo unspecified)",
    "value kind": "outcome",
    "observed value": "inactive"
  },
  {
    "compound": "C=C1C[C@@]23CC[C@H]4[C@@](C)(CCC[C@@]4(C)C(=O)OC4OC(CO)C(O)C(O)C4O)[C@@H]2CC[C@]1(OC1OC(CO)C(O)C(O)C1OC1OC(CO)C(O)C(O)C1O)C3 (stereo partly specified)",
    "value kind": "outcome",
    "observed value": "inactive"
  }
]

// next item, outcome requested
Qu. Which measured outcome value corresponds to NC1(C(=O)O)CCc2cc(C(=O)O)ccc21 (stereo unspecified) ?
Ans. inactive

---

molecular target: Atrial natriuretic peptide receptor 1 (Homo sapiens) (UniProt P16066); assay: Natriuretic polypeptide receptor (hNpr1) antagonism - Pilot screen (AID 1347049); settings: hNpr1 cells, antagonist mode cGMP read-out; series mostly up to 57.5 µM;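 also: HEK293 cells with hNpr1 and GloSensor cGMP luciferase stimulated by 0.1 nM hNppA; agonist-evoked cGMP luminescence read 20 min after hNppA addition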
Sequence (P16066 whole entry, looked up): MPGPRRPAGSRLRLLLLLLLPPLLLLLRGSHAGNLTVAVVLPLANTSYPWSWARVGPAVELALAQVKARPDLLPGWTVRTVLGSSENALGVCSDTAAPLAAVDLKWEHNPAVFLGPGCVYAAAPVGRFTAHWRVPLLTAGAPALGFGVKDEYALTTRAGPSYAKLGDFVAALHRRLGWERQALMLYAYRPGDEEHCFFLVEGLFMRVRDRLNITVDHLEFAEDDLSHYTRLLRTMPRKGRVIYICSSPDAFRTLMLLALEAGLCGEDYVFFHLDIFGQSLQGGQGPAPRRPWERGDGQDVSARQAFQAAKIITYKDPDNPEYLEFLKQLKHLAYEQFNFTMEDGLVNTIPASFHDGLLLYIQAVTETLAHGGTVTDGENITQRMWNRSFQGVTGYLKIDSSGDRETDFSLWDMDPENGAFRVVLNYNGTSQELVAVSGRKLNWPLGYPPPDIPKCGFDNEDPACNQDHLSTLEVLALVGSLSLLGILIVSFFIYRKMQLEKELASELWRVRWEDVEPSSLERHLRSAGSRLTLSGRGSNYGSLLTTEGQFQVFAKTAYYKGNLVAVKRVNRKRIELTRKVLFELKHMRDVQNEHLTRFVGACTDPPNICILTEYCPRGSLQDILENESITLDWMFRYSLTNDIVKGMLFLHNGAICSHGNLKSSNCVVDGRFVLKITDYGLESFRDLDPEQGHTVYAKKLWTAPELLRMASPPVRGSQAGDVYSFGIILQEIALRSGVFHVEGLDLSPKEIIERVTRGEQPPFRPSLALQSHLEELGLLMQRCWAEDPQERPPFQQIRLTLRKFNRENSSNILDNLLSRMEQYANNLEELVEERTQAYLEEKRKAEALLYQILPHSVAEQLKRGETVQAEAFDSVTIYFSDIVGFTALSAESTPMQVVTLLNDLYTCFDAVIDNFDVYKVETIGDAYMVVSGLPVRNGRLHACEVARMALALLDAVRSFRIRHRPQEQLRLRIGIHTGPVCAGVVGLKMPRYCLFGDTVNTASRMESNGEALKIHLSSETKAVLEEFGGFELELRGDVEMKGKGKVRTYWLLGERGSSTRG
Inconclusive results are not listed. Calls of active or inactive are those of the source. Calls come from the whole dose curve.
Please answer using one outcome listed in t = active, f = inactive

Illustrative cases are given below, each with its answer.
[
  {
    "compound": "O=C1NC(=O)c2cc(Nc3ccccc3)c(Nc3ccccc3)cc21",
    "answer label": "f"
  },
  {
    "compound": "COc1cc(/C=C(\\C#N)C(=O)Nc2nnc(C(F)(F)F)s2)ccc1OCc1ccc(C(F)(F)F)cc1C(F)(F)F",
    "answer label": "t"
  },
  {
    "compound": "CCCn1c(=O)c2[nH]c(C3CCCC3)nc2n(CCC)c1=O",
    "answer label": "f"
  },
  {
    "compound": "CNCCc1cnc(CCC(c2ccccc2)c2ccccc2)[nH]1",
    "answer label": "f"
  },
  {
    "compound": "COc1cc(C(O)C(=O)O)ccc1O (stereo not drawn)",
    "answer label": "f"
  }
]

Qu. Entry COc1ccccc1N1CCN(CCCCN2C(=O)c3ccccc3C2=O)CC1 : call = ?
Ans. f

Qu. Entry Nc1ccc(-c2nc3ccc(-c4nc5ccc(N)cc5[nH]4)cc3[nH]2)cc1 : call = ?
Ans. f

Qu. Entry NCCCCN : call = ?
Ans. f
